# Assay Method Text: in vitro
# Condition Set: human
Measurement Kind: cytotoxicity at 41 h, 10 µM (%)
Numbers only, in %.

COc1ccc(C(=O)c2ccc(O)cc2)c(O)c1O [2,3,4′-Trihydroxy-4-methoxybenzophenone]; 6.4
CNc1ccccc1C(=O)N1CCc2c([nH]c3ccccc23)C1=O [RHETSININE]; 29.6
O=C1C=C(O)C(=O)c2ccccc21 [LAWSONE]; -12
O=C(O)CCCCCCCC(=O)O [AZELAIC ACID]; 1.8
O=C1C[C@@H](c2ccc(O)cc2)Oc2cc(O)cc(O)c21 [NARINGENIN]; -17.3

// for each molecule below, give its cytotoxicity at 41 h, 10 µM
1. O=c1c2ccccc2oc2ccccc12 [XANTHONE]
2. COc1c(-c2coc3cc4c(cc3c2=O)CC(OC(C)=O)C(C)(C)O4)ccc2c1C=CC(C)(C)O2 (stereo not drawn) [MUNDULONE ACETATE]
3. O=C(O)[C@H]1O[C@@H](Oc2cc3oc(-c4ccccc4)cc(=O)c3c(O)c2O)[C@H](O)[C@@H](O)[C@@H]1O [BAICALIN]
4. COc1ccc2c(c1)OC[C@@H](Cc1ccc(OC)c(OC)c1)[C@@H]2O [3-DESHYDROXYSAPPANOL TRIMETHYL ETHER]

[reply]
1: 8.9; 2: 22.6; 3: -17.1; 4: 3.2

###

# System: HCT-8 host cells (Hs18S)
# Condition Set: primary screening at 10 uM, treated vs control
Measurement Kind: Hs18S ΔCT
Numbers only.

O=C1c2ccccc2C(=O)c2c(O)c(O)cc(O)c21; -0.19
CC1(C)C(=O)C=C[C@]2(C)[C@H]3CC[C@@]4(C)[C@H](c5ccoc5)OC(=O)[C@H]5O[C@]54[C@]3(C)[C@H](O)C[C@@H]12; 0.23

// for each molecule below, give its Hs18S ΔCT
1. CC[C@H](/C=C/[C@@H](C)[C@H]1CC[C@H]2[C@@H]3CC=C4C[C@@H](O)CC[C@]4(C)[C@H]3CC[C@]12C)C(C)C
2. COc1cc(O)c(C(C)=O)c(O)c1
3. CC(C)CCC[C@@H](C)[C@H]1CC[C@H]2[C@@H]3CC[C@H]4C[C@@H](O)CC[C@]4(C)[C@H]3CC[C@]12C
4. Cc1cc(=O)oc2cc(O)c(O)cc12
5. CC(C)(O)CC[C@@H](O)[C@](C)(O)[C@H]1CC[C@@]2(O)C3=CC(=O)[C@@H]4C[C@@H](O)[C@@H](O)C[C@]4(C)[C@H]3CC[C@]12C

[reply]
[0.96, 0.16, -0.03, 0.01, -0.15]

###

# System: HCT-8 host cells (Hs18S)
# Condition Set: primary screening at 10 uM, treated vs control
Structures can show the parent of a compound that is named as a salt.
Hs18S ΔCT under 0.2 gets YES, anything at or over 0.2 gets NO.

Sample answers from the record:
CC(=O)[C@@]1(O)CC[C@H]2[C@@H]3CCC4=CC(=O)CC[C@]4(C)[C@H]3CC[C@@]21C [HYDROXYPROGESTERONE]; NO
CN1CCCCC1c1ccc(-c2cccnc2)nc1 (centres unmarked) [ANABASAMINE HYDROCHLORIDE]; NO
COc1cc2c(cc1OC)Cc1cc(OC)c(OC)cc1Cc1cc(OC)c(OC)cc1C2; YES

Then there is this compound:
[ask] Lab log: compare recorded Hs18S ΔCT with 0.2; is it strictly lower for `COc1cc2c(cc1O)C[C@H]1c3c(cc(O)c(OC)c3-2)CCN1C` ?
[reply] YES

Data provenance is paper PMC6736568.
